# credit: PubChem BioAssay

Catalogue of molecules with associated viability
Test: reversal of MRP1-mediated doxorubicin resistance, pilot screen, H69AR cells, doxorubicin co-treatment (AID 601)
Conditions: H69AR cells + 2 uM doxorubicin, CellTiter-Glo, 72 h; measured here: viability with 2 uM doxorubicin; at 10 µM; stronger effect = lower value
Value expressed in %; do not type the unit.

Please list viability recorded for the molecule "CCOC(=O)c1cccc(NC(=O)CSc2nnc(C3CCCCC3)n2C)c1"
84.7

Please list viability recorded for the molecule CC(C(=O)N1CCOCC1)N1c2cccc3cccc(c23)S1(=O)=O (stereo unspecified)
92.6

Please list viability recorded for the molecule "Cc1cc(C(=O)NCCN2CCN(c3cccc(Cl)c3)CC2)n(-c2ccccc2)n1"
48.2

###

Assay: reversal of MRP1-mediated doxorubicin resistance, pilot screen, H69AR cells, doxorubicin co-treatment (AID 601)
Details: H69AR cells, CellTiter-Glo, 72 h; compound alone cytotoxicity; at 10 µM
Measured Endpoint: viability (%)
Value expressed in %; do not type the unit.

Please list viability recorded for the molecule "Cc1ccc(S(=O)(=O)Cc2ccc(C(=O)NCCCN3CCN(C)CC3)o2)cc1"
103

###

Assay: reversal of MRP1-mediated doxorubicin resistance, pilot screen, H69AR cells, doxorubicin co-treatment (AID 601)
Details: H69AR cells + 2 uM doxorubicin, CellTiter-Glo, 72 h; measured here: viability with 2 uM doxorubicin; at 10 µM; stronger effect = lower value
Measured Endpoint: viability (%)
Value expressed in %; do not type the unit.

Past entries and their recorded results:
> print(dat)
                                   molecule  output.unit  assay.value
1  Cc1c(NC(=O)C(C)OC(=O)C(NC(=O)c2ccco2)C(C)C)c(=O)n(-c2ccccc2)n1C (stereo unspecified)            %         85.8
2  Cc1ccc2c(c1C)NC(C)CC2C (stereo unspecified)            %         88.2

Please list viability recorded for the molecule "O=S(=O)(NCc1cccnc1)c1cccc2nsnc12"
85.8

Please list viability recorded for the molecule CCCC(O)(CCN(C)C)c1ccc(OC)cc1 (stereo unspecified)
84

Please list viability recorded for the molecule "CCOC(=O)Cn1c(CN2CCN(c3cccc(Cl)c3)CC2)nc2c1c(=O)[nH]c(=O)n2C"
78.7

Please list viability recorded for the molecule "Cc1ccc2nc(SCC(=O)NCc3ccco3)c(C#N)cc2c1"
69.7

###

Test: growth suppression of yeast trafficking mutant, preliminary HTS, modulators of trafficking downstream of Golgi apparatus project, 1536-format plate, OD 615 nm (AID 637)
Details: yeast transport mutant growth, absorbance 615 nm, 18 h; stronger effect = higher value
Catalogue of compounds with associated inhibition
Value expressed in %; do not type the unit.

> print(dat)
                                   compound  assay.value
1             CCC(=O)N1CCN=C1SCc1ccc(Cl)cc1         31.5
2  COCCOC(=O)c1c(C)oc2ccc(NS(=O)(=O)c3ccc(F)cc3)cc12          2.7
3   Cc1nc2c(-c3ccccc3)c(C)nn2c(C)c1CCC(=O)O         5.57

--- query ---
Please list inhibition recorded for the compound "Nn1c(SCC(=O)Nc2ccc3c(c2)OCCO3)nnc1C(F)(F)F"
1.27

###

Test: SK-BR-3 cell growth inhibitors, pilot screen, 24 h, human (AID 572);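 also: compound exposure lasted between 18 and 24 h rather than exactly 24 h; 100% = carrier-treated control wells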
Details: SK-BR-3 viability, CellTiter-Glo luminescence, at 10 µM, stronger effect = lower value
Measured Endpoint: viability (%)
Value expressed in %; do not type the unit.

> print(dat)
                                   compound  assay.value
1  CCN(CCCNC(=O)C1CCCN(S(=O)(=O)c2cnc[nH]2)C1)c1ccccc1 (stereo not given)           94
2  CCSc1nnc(NC(=O)CSc2nnc(Cc3cccn3C)n2-c2ccc(C)cc2)s1         95.5
3   COc1ccc(-c2noc(-c3cc(Cl)ccc3Cl)n2)cc1OC          122
4  Cc1cc(C)cc(NC(=O)CCNS(=O)(=O)c2ccc3c(c2)oc(=O)n3C)c1          118
5    O=C(Cn1ccc2ccccc2c1=O)Nc1ccc2c(c1)OCO2          104
6       CC(C)(C)C1=C[C@@H](CO)C[C@@H](CO)C1           86

Please list viability recorded for the compound C=CCc1cc(OC)ccc1OCC(O)CN1CCN(c2ccc(OC)cc2)CC1 (stereo not given)
82.5

Please list viability recorded for the compound Cc1noc(C)c1S(=O)(=O)N1CCCC(C(=O)NCCc2ccc(Cl)cc2)C1 (stereo not given)
89

Please list viability recorded for the compound Cc1ccc(CCNC(=O)CC2Oc3ccc(C)cc3NC2=O)cc1 (stereo not given)
90

Please list viability recorded for the compound COc1ccc(-c2nc3c(c(=O)n(C)c(=O)n3C)n2CC2CC(c3ccccc3)=NO2)cc1OC (stereo not given)
85.5

###

Experiment: HUVEC growth inhibition – cell-based, human, primary screen (AID 575);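 also: 100% = median of untreated cell wells with 0.1% DMSO on each plate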
Conditions: HUVEC proliferation, CellTiter-Glo luminescence, 72 h; at 10 µM; stronger effect = lower value
Threshold 90%: viability strictly smaller gives true, otherwise false.

These recorded examples may help you get a feel for the data.
> print(dat)
                    structure.smiles.string  classification
1  CN(C)c1ccc(NC(=O)CSCc2nc3c(nnn3Cc3ccc(F)cc3)c(=O)[nH]2)cc1           false
2  Cn1c(SCc2nc3ccccc3c(=O)[nH]2)nnc1-c1ccco1           false
3             O=C(Nc1ccc2c(c1)OCCO2)c1ccco1            true
4       Cc1ccc(S(=O)(=O)CC(=O)N2CCCCCC2)cc1            true

In plain terms, does "O=C(CSc1nnc(-c2cccnc2)o1)Nc1ccccn1" come in under 90% for viability?
false

###

Catalogue of compounds with associated viability
Experiment: reversal of MRP1-mediated doxorubicin resistance, pilot screen, H69AR cells, doxorubicin co-treatment (AID 601)
Conditions: H69AR cells, CellTiter-Glo, 72 h; compound alone cytotoxicity; at 10 µM
Value expressed in %; do not type the unit.

> print(dat)
                    structure.smiles.string  output.unit  assay.value
1  CC(=O)c1nnn(-c2nc(N3CCCC3)nc(N(c3ccccc3)c3ccccc3)n2)c1C            %         82.7

Please list viability recorded for the compound "COc1ccc(CCNC(=O)c2cc(-c3cc(C)c(C)cc3O)n[nH]2)cc1OC"
77

Please list viability recorded for the compound "CCOC(=O)N1CCC(NC(=O)CCN2C(=O)COc3ccccc32)CC1"
84.1

Please list viability recorded for the compound "CCOc1nc(SCCOc2ccccc2)nc(N(C)C)n1"
107

Please list viability recorded for the compound "CCOCCCn1c(=S)[nH]c2cc3c(cc2c1=O)OCO3"
97.6

Please list viability recorded for the compound "O=C(Cc1c(F)cccc1Cl)Nc1ccncc1"
86.4

###

Test: HUVEC growth inhibition – cell-based, human, primary screen (AID 575);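 also: 100% = median of untreated cell wells with 0.1% DMSO on each plate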
Details: HUVEC proliferation, CellTiter-Glo luminescence, 72 h; at 10 µM; stronger effect = lower value
Threshold 90%: viability strictly smaller gives yes (1), otherwise no (0).

These recorded examples may help you get a feel for the data.
> print(dat)
                                   molecule  classification
1  Cn1c(=O)c2c(nc(SCC(=O)NCc3ccco3)n2C)n(C)c1=O         yes (1)
2  O=C(Cn1c(=O)n(Cc2ccc3c(c2)OCO3)c(=O)c2ccccc21)N1CCCc2ccccc21         yes (1)

In plain terms, does "CCOc1ccc(C(C)=O)cc1COc1ccc(-n2cnnn2)cc1" come in under 90% for viability?
no (0)

In plain terms, does CS(=O)(=O)c1ccc2nc(NC(=O)C3C4C=CC(C4)C3C(=O)O)sc2c1 (stereo unspecified) come in under 90% for viability?
no (0)

In plain terms, does "COc1ccccc1C(=O)Nc1ccc(S(=O)(=O)N2CCOCC2)cc1" come in under 90% for viability?
no (0)

In plain terms, does "Cn1c(Cc2csc(N)n2)nnc1SCC(=O)NCc1ccccc1" come in under 90% for viability?
no (0)

In plain terms, does "Cc1ccc(-c2csc3nnc(SCC(=O)NCc4ccco4)n23)cc1" come in under 90% for viability?
yes (1)

In plain terms, does "O=C(OCC#CCSc1nc2ccccc2o1)c1ccco1" come in under 90% for viability?
yes (1)

In plain terms, does "CN(C)c1nc(Nc2ccc(Cl)cc2)nc(OCC#N)n1" come in under 90% for viability?
yes (1)

In plain terms, does "CCOC(=O)N1CCN(c2ncnc3c2[nH]c2ccc(OC)cc23)CC1" come in under 90% for viability?
yes (1)

In plain terms, does "CCOC(=O)c1[nH]c2ccccc2c1NC(=O)c1ccco1" come in under 90% for viability?
no (0)

In plain terms, does "CCOC(=O)c1c(NC(=O)c2nn(CC)cc2Br)c(C#N)cn1-c1ccccc1" come in under 90% for viability?
yes (1)

In plain terms, does "CCOC(=O)CSc1nc2c(c(-c3ccc(C)o3)c1C#N)CCCC2" come in under 90% for viability?
yes (1)

In plain terms, does "Cc1cccc(-c2nnn(CC/C(N)=N/O)n2)c1" come in under 90% for viability?
yes (1)

In plain terms, does "CCc1nc(C)c(C#N)c2cc(OC)c(OC)cc12" come in under 90% for viability?
yes (1)

In plain terms, does O=c1[nH]c2c(s1)C(c1ccco1)C1C3CCC(C3)C1S2 (stereo unspecified) come in under 90% for viability?
no (0)

In plain terms, does "CCCc1nnc(SCC(=O)N2CCOCC2)n1Cc1ccco1" come in under 90% for viability?
no (0)
